Cited source: the supplement of paper PMC7125110

B1: glmS ribozyme (parent)
chain: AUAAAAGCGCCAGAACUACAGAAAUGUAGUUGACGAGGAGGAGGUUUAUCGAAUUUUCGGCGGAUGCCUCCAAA

# Variants of: B1
# assay_procedure: self-cleavage kobs at 10000 uM GlcN6P; higher = faster cleavage; RNA array
# conditions_used: with glucosamine-6-phosphate
Fewer inactive variants are shown than the library holds.
readout_type: self-cleavage kobs at 10000 uM GlcN6P

Below: 5 variants and their reported self-cleavage kobs at 10000 uM GlcN6P.
residue_sequence: AUAAAAGCGCCAGAAAUACAGAAAUGUAGUUGACGAGGAGGAGGUUUAUCGAAUUUUCGGCGGGUGGCUUCAAA
self-cleavage kobs at 10000 uM GlcN6P: < 1e-05 s⁻¹

residue_sequence: AUAAAAGCGCCAGAAAUACAGAAAUGUAGUUGACGAGGAGGAGGUUUAUCUAAUUUUCGGCGGAAGCCUCCAAA
self-cleavage kobs at 10000 uM GlcN6P: < 1e-05 s⁻¹

residue_sequence: AUAAAAGCUCCAGAACUACAGAAAUGUAGUUGACGAGGAGGAGGUUUAUCGAAUUUUCGGCGGAUGCCUUCAAA
self-cleavage kobs at 10000 uM GlcN6P: < 1e-05 s⁻¹

residue_sequence: AUAAAAGCGCCAGAACUACAGAAAUGUAGUUGACGAGGAGGAGGUUUAUCGAAUUUUCGGCGGAUGGCGCCAAA
self-cleavage kobs at 10000 uM GlcN6P: < 1e-05 s⁻¹

residue_sequence: AUAAAAGCGGCAGAACUACAGAAAUGUAGUUGACGAGGAGGAGGUUUUUCGAAUUUUCGGCGGAUGCCUCCAAA
self-cleavage kobs at 10000 uM GlcN6P: < 1e-05 s⁻¹

Turning now to a further variant:
Can you share its self-cleavage kobs at 10000 uM GlcN6P? I mean this variant: "AUAAAAGCGCCAGAACUACAGAAAUGUAGUUGACGAAGAGGAGGUUUAUCGAAUUUUCGGAGGAUGCCUUCAAA" < 1e-05 s⁻¹
